Tested on: P. berghei-ANKA-GFP-LucCON liver stage parasites in HepG2-A16-CD81EGFP cells
Experiment: P. berghei liver stage Pb-Luc assay, Method 1 (UCSD, 1536-well)
Type: cell-based, Plasmodium berghei
Conditions: Plasmodium berghei, 48 h, 1 uM (compounds provided at 10 mM); average of 2 wells on a 1536 well plate; column 11; read-out: Pb-Luc (P. berghei liver stage), % of control, lower concentration, first repeat
As shown below, each of these compounds has a reported activity at 1 µM value.

compound | experimental-target | activity at 1 µM
COc1cc(Cl)c(C)cc1NC(C)C(=O)Nc1cc(C(F)(F)F)ccc1N1CCOCC1 (centres unmarked) [MLS000375301-01] | P. berghei-ANKA-GFP-LucCON liver stage parasites in HepG2-A16-CD81EGFP cells | 124%
COc1cc2nc(Nc3ccc(C)c(Cl)c3)nc(N)c2cc1OC [MLS001199666-01] | P. berghei-ANKA-GFP-LucCON liver stage parasites in HepG2-A16-CD81EGFP cells | 99%
COc1cc(O)c(C(CCN2CCN(c3ccccc3)CC2)c2ccc3c(c2)OCO3)c(OC)c1 (centres unmarked) [MLS000879526-01] | P. berghei-ANKA-GFP-LucCON liver stage parasites in HepG2-A16-CD81EGFP cells | 105%
Cc1ccc(Cl)cc1NC(=O)c1cc2ccccc2cc1O [MLS000738149-01] | P. berghei-ANKA-GFP-LucCON liver stage parasites in HepG2-A16-CD81EGFP cells | 92%
CCOC(=O)c1nnn(-c2nonc2-n2cccc2)c1CN1CCC(C(=O)OCC)CC1 [MLS000538888-01] | P. berghei-ANKA-GFP-LucCON liver stage parasites in HepG2-A16-CD81EGFP cells | 103%
Cc1cccc(NC2=C/C(=N\S(=O)(=O)c3cccs3)c3ccccc3C2=O)c1 [MLS000585840-01] | P. berghei-ANKA-GFP-LucCON liver stage parasites in HepG2-A16-CD81EGFP cells | 90%
N=c1c2c(n(Cc3ccc(F)cc3)c3c1CCC3)CCCC2 [MLS000856097-01] | P. berghei-ANKA-GFP-LucCON liver stage parasites in HepG2-A16-CD81EGFP cells | 60%
N=c1c2ccccc2nnn1-c1ccc(C(F)(F)F)cc1 [MLS000707013-01] | P. berghei-ANKA-GFP-LucCON liver stage parasites in HepG2-A16-CD81EGFP cells | 23%

----------
Assay: in vitro
Conditions: human, HepG2-A16-CD81EGFP cells, uninfected
As shown below, each of these compounds has a reported viability at 48 h, 1 µM value.

compound | viability at 48 h, 1 µM, %
CCN1CCN(C(=O)c2ccc3c(c2)N(Cc2ccccc2F)C(=O)c2ccccc2[S+]3[O-])CC1 (stereo not drawn) | 101
Cc1ccccc1Nc1cc(C)c2c(O)cccc2n1 | 105
CC(CCc1ccccc1)NCC(O)c1cccc([N+](=O)[O-])c1 (stereo not drawn) | 104
COc1ccc(S(=O)(=O)N2CCC3(CC2)OCCN3S(=O)(=O)c2c(C)cc(C)cc2C)cc1 | 108
CCN1CCN(C(=O)c2ccc3c(c2)N(Cc2ccc(Cl)cc2)C(=O)c2ccccc2[S+]3[O-])CC1 (stereo not drawn) | 110
Cc1ccc([S+](=O)([O-])N2CCC(OC3CCN(Cc4ccccc4)CC3)CC2)c(C)c1 | 111
COc1cccc(CN2CCC(Oc3ccc(-c4noc(C5CC5)n4)cc3)C2)c1 (stereo not drawn) | 102
COc1ccc(C2c3[nH]c4ccccc4c3C[C@H]3C(=O)N(C4CCN(Cc5ccccc5)CC4)CC(=O)N23)c(OC)c1 (stereo partly drawn) | 106
Cc1ccc2oc(=O)c3cnn(CC(=O)Nc4cccc(C(F)(F)F)c4)c3c2c1 | 94
Cc1cccn2c(=O)c3cc(C(=O)NC4CCCC4)c(=N)n(CCc4ccccc4)c3nc12 | 95
COc1ccc(NC(C)C(=O)Nc2cc(C(F)(F)F)ccc2N2CCOCC2)c(OC)c1 (stereo not drawn) | 100
Cc1cccc(Cl)c1/N=C(\S)N1CCN(c2ccc([N+](=O)[O-])cn2)CC1 | 95
O=S(=O)(c1ccc(Cl)cc1)N1CCN(C(S)=NCC2CCCO2)CC1 (stereo not drawn) | 85
Cc1ccccc1NC(=O)c1cc(C(=O)c2cc(Cl)ccc2O)cn(-c2ccccc2C)c1=O | 98
Cc1ccc(NC(=O)c2ccc(NCCCN3CCC(C)CC3)c([N+](=O)[O-])c2)cc1F | 106
Cc1ccc(C)c(Oc2c(C(F)(F)F)oc3c(CN4CCN(C)CC4)c(O)ccc3c2=O)c1 | 110
COc1cc(NC2CCCCC2O)c2nc(-c3ccc(Cl)cc3)ccc2c1 (stereo not drawn) | 111
Cc1nn2c(c1-c1ccccc1-c1ccccc1)N(CC1CC1)CCC2 | 102
COc1cc(OC)c(NC2=CC(=O)C(=O)c3ccccc32)cc1Cl | 93
Cc1cc(N)c2cc(NC(=O)/C=C/c3ccccc3Cl)ccc2n1 | 105
OC(c1cc(-c2ccc(C(F)(F)F)cc2)nc(C(F)(F)F)c1)C1CCCCN1 (stereo not drawn) | 109
CCOC(=O)c1nnn(-c2nonc2-n2cccc2)c1CN1CCC(C(=O)OCC)CC1 | 108
CCN1CCN(Cc2c(O)ccc3c(=O)c(Oc4ccccc4C(C)C)c(C(F)(F)F)oc23)CC1 | 97.5
Cn1c(/N=N/c2ccccc2)nc2ccccc21 | 91
CCCCC(O)(c1ccc(CC)cc1)C(CN1CCOCC1)c1ccccc1 (stereo not drawn) | 88
Oc1cc(NCc2ccccc2)cc2cccnc12 | 91
Cc1cc(C)cc(/N=C/c2[nH]c3ccc(Br)c(Cl)c3c2O)c1 | 104
O=C1C2=C(Nc3ccccc3SC2c2ccco2)c2ccccc21 (stereo not drawn) | 110
COc1cnc(-c2ccccn2)nc1Sc1c(Cl)cccc1Cl | 106
O=c1cc(CSc2ccc(Cl)cc2)nc(-c2ccccn2)[nH]1 | 92
Cc1ccc(NCC(=O)Nc2cccc(F)c2)cc1S(=O)(=O)N1CCCCCC1 | 93
COc1cc(C#Cc2c(-c3cncn3C)n(C)c3ccc(-c4ccc5[nH]ccc5c4)cc23)cc(OC)c1 | 105
CCN1CCN(Cc2c(O)ccc3c(=O)c(Oc4ccccc4Cl)c(C(F)(F)F)oc23)CC1 | 99.8

----------
Test system: Plasmodium falciparum Dd2-attB (parental line), asexual blood stages
Construct: Dd2-attB, the isogenic parental line
Assay: microbe, parasite or virus in culture
Set-up: replicate k of 3 (each line is one of three independent assays; the three lines of one compound and parasite line follow each other)
Conditions: Plasmodium falciparum, DD2, 72 h; n = 1; read-out: Individual replicates / Log AC50 (converted)
metric: AC50 (µM)

molecule | metric | unit-abbreviation | observed-value
O=C(c1cccc(-c2cc(O)c3ncccc3c2)c1)N1CCCCC1 | AC50 | µM | 6.33
O=C(O)c1ccnc(-n2ncc(C(CC3CC3)OCCN3CCCCC3)c2-c2cccc(-c3ccccc3)c2)c1 (stereo not shown) | AC50 | µM | 15.9
O=C(Cc1ccc(O)cc1)N1CCC2(C1)CN(c1ccccc1)C2 | AC50 | µM | 14.2
O=C(O)c1ccc(O)c2ncc(N3CCCN(CCc4cccc5ccccc45)CC3)cc12 | AC50 | µM | 6.33

----------
System: P. berghei-ANKA-GFP-LucCON liver stage parasites in HepG2-A16-CD81EGFP cells
Experiment: P. berghei liver stage Pb-Luc assay, Method 1 (UCSD, 1536-well)
Format: cell-based, Plasmodium berghei
Conditions: Plasmodium berghei, 48 h, nominal 3 uM (10 mM stock); 4.5 uM for 15 mM, 3.6 uM for 12 mM, 6 uM for 20 mM stock; average of 2 wells, 1536-well plate; repeat 3; read-out: Pb-Luc signal, 3 uM, repeat 3
# note: exactly 50% is not below, so it is False; use True for activity at 3 µM strictly under it

molecule | class
COc1ccccc1Nc1cnc2ccc(-c3ccc(OC)c(OC)c3)nn12 [NCGC00412573-01] | True
CCOC(=O)C1(Cc2ccccc2Cl)CCNCC1 [NCGC00430911-01] | False
COc1cccc(C2C(C(=O)Nc3ccc(C)cc3C)=C(C)Nc3c(C(=O)Nc4ccccc4)cnn32)c1 (centres unmarked) [NCGC00126286-01] | False
CC1=C(C(=O)Nc2ccc(C)cc2C)C(c2cc(Br)ccc2F)n2ncc(C(=O)Nc3ccc(C)cc3)c2N1 (centres unmarked) [NCGC00126328-01] | False
O=C(Nc1ccc2c(N3CCCC3)ncnc2c1)c1cccc(Br)c1 [NCGC00425495-01] | True
Cn1nc(C(=O)NCC(=O)N2CCCCCCNC(=O)CC2c2ccccc2)c2ccccc21 (centres unmarked) [NCGC00467428-01] | False
CCc1ccc(Oc2c(C(F)(F)F)oc3c(CN4CCN(CC)CC4)c(O)ccc3c2=O)cc1 [NCGC00101506-01] | True

Reference source for all entries: paper PMC7822874
